System: PC3
Experiment: CCK-8 anti-proliferation assay, PC3
Format: cell-based, human
Conditions: Homo sapiens, PC-3, 20 μM, mean ± SD, read-out: Inhibition Rate (%) at 20 μM PC3
Description: Human cervical cancer HeLa, human prostate cancer PC3, human colonic carcinoma HCT116, human lung carcinoma A549, human breast cancer MDA-MB-231, mouse melanoma B16, human ovarian cancer SKOV3, human hepatoma Hep3B, and human liver L02 cells were purchased from the Cell Bank of Shanghai Institute of Biochemistry and Cell Biology, Chinese Academy of Sciences (Shanghai, China). […]
Class field: derived from inhibition at 20 µM; ranges bottom range: < 10%; center range: ≥ 10% and < 20%; top range: ≥ 20%

[
  {
    "MOLECULE": "COc1cc(-c2ccc(C(=O)NCc3cc(C(F)(F)F)ccc3F)o2)c(OC)c2ccccc12",
    "CATEGORY": "top range"
  },
  {
    "MOLECULE": "N#C/C(=C\\c1ccc(C2=CC(=O)c3ccccc3C2=O)o1)C(=O)NCCN1CCOCC1",
    "CATEGORY": "top range"
  },
  {
    "MOLECULE": "CC(NC(=O)c1ccc(C2=CC(=O)c3ccccc3C2=O)o1)c1ccccc1 (stereo not drawn)",
    "CATEGORY": "center range"
  },
  {
    "MOLECULE": "COc1cc(-c2ccc(C(=O)NCCCn3ccnc3)o2)c(OC)c2ccccc12",
    "CATEGORY": "bottom range"
  },
  {
    "MOLECULE": "COc1cc(-c2ccc(C(=O)NCCC(=O)N3CCOCC3)o2)c(OC)c2ccccc12",
    "CATEGORY": "bottom range"
  },
  {
    "MOLECULE": "COc1cc(N2CCC(N(C)C)CC2)ccc1NC(=O)c1ccc(-c2cc(OC)c3ccccc3c2OC)o1",
    "CATEGORY": "top range"
  },
  {
    "MOLECULE": "COc1cc(-c2ccc(/C=C(\\C#N)C(=O)NC3CCN(Cc4ccccc4)CC3)o2)c(OC)c2ccccc12",
    "CATEGORY": "center range"
  },
  {
    "MOLECULE": "N#C/C(=C\\c1ccc(C2=CC(=O)c3ccccc3C2=O)o1)C(=O)N1CC2CCCCC2C1 (stereo not drawn)",
    "CATEGORY": "center range"
  },
  {
    "MOLECULE": "COc1cc(-c2ccc(/C=C(\\C#N)C(=O)NCCN3CCOCC3)o2)c(OC)c2ccccc12",
    "CATEGORY": "bottom range"
  },
  {
    "MOLECULE": "COc1cc(-c2ccc(C(=O)NC3CCC(F)(F)CC3)o2)c(OC)c2ccccc12",
    "CATEGORY": "center range"
  },
  {
    "MOLECULE": "COc1cc(-c2ccc(C(=O)Nc3cccc(N4CCN(C)CC4)c3)o2)c(OC)c2ccccc12",
    "CATEGORY": "center range"
  },
  {
    "MOLECULE": "COc1cc(-c2ccc(C(=O)NC(C)c3ccccc3)o2)c(OC)c2ccccc12 (stereo not drawn)",
    "CATEGORY": "top range"
  }
]

* * *

Parameter inhibition at 20 µM: see the listing below.
tested on: HCT116; assay: CCK-8 anti-proliferation assay, HCT116; assay type: cell-based, human; details: Homo sapiens, HCT-116, 20 μM, mean ± SD, read-out: Inhibition Rate (%) at 20 μM HCT116

[
  {
    "COMPOUND": "COc1cc(-c2ccc(C(=O)NC(C)c3ccccc3)o2)c(OC)c2ccccc12 (stereo not drawn)",
    "inhibition at 20 µM [%]": 2.17
  },
  {
    "COMPOUND": "COc1cc(-c2ccc(C(=O)Nc3ccc(CN4CCN(C)CC4)c(C(F)(F)F)c3)o2)c(OC)c2ccccc12",
    "inhibition at 20 µM [%]": 19.6
  },
  {
    "COMPOUND": "COc1cc(-c2ccc(/C=C(\\C#N)C(=O)N3CC4CCCCC4C3)o2)c(OC)c2ccccc12 (stereo not drawn)",
    "inhibition at 20 µM [%]": 43.7
  },
  {
    "COMPOUND": "COc1cc(-c2ccc(/C=C(\\C#N)C(=O)NCCc3cccs3)o2)c(OC)c2ccccc12",
    "inhibition at 20 µM [%]": 10.8
  },
  {
    "COMPOUND": "O=C(NCCC(=O)N1CCOCC1)c1ccc(C2=CC(=O)c3ccccc3C2=O)o1",
    "inhibition at 20 µM [%]": 37.2
  },
  {
    "COMPOUND": "COc1cc(-c2ccc(/C=C(\\C#N)C(=O)NCCN3CCCC3)o2)c(OC)c2ccccc12",
    "inhibition at 20 µM [%]": 29.1
  },
  {
    "COMPOUND": "COc1cc(-c2ccc(/C=C(\\C#N)C(=O)NCc3cccc(C(F)(F)F)c3)o2)c(OC)c2ccccc12",
    "inhibition at 20 µM [%]": 7.69
  },
  {
    "COMPOUND": "COc1cc(-c2ccc(C(=O)NC3CCC(F)(F)CC3)o2)c(OC)c2ccccc12",
    "inhibition at 20 µM [%]": 27.2
  },
  {
    "COMPOUND": "COc1cc(-c2ccc(C(=O)NC3CCN(Cc4ccccc4)CC3)o2)c(OC)c2ccccc12",
    "inhibition at 20 µM [%]": 12.4
  },
  {
    "COMPOUND": "N#C/C(=C\\c1ccc(C2=CC(=O)c3ccccc3C2=O)o1)C(=O)NC1CCN(Cc2ccccc2)CC1",
    "inhibition at 20 µM [%]": 8.36
  },
  {
    "COMPOUND": "O=C(NC1CCN(Cc2ccccc2)CC1)c1ccc(C2=CC(=O)c3ccccc3C2=O)o1",
    "inhibition at 20 µM [%]": 33.7
  },
  {
    "COMPOUND": "CC(NC(=O)c1ccc(C2=CC(=O)c3ccccc3C2=O)o1)c1ccccc1 (stereo not drawn)",
    "inhibition at 20 µM [%]": 7.22
  },
  {
    "COMPOUND": "COc1cc(-c2ccc(C(=O)NCCCn3ccnc3)o2)c(OC)c2ccccc12",
    "inhibition at 20 µM [%]": 27.5
  },
  {
    "COMPOUND": "N#C/C(=C\\c1ccc(C2=CC(=O)c3ccccc3C2=O)o1)C(=O)NCCN1CCOCC1",
    "inhibition at 20 µM [%]": 67.7
  },
  {
    "COMPOUND": "N#C/C(=C\\c1ccc(C2=CC(=O)c3ccccc3C2=O)o1)C(=O)N1CCc2ccccc2C1",
    "inhibition at 20 µM [%]": 8.83
  },
  {
    "COMPOUND": "COc1cc(-c2ccc(C(=O)Nc3cccc(N4CCN(C)CC4)c3)o2)c(OC)c2ccccc12",
    "inhibition at 20 µM [%]": 7.7
  },
  {
    "COMPOUND": "COc1cc(-c2ccc(/C=C(\\C#N)C(=O)NC3CCN(Cc4ccccc4)CC3)o2)c(OC)c2ccccc12",
    "inhibition at 20 µM [%]": 5.69
  },
  {
    "COMPOUND": "N#C/C(=C\\c1ccc(C2=CC(=O)c3ccccc3C2=O)o1)C(=O)NCCc1cccs1",
    "inhibition at 20 µM [%]": 26.8
  }
]
